This document collects IC50 values reported for EED-EZH2 (Homo sapiens (Human)).

Molecule	Reported Property	Test Result
Cc1c(C(=O)NC2CC(=O)N(Cc3ccccc3[N+](=O)[O-])C2)cccc1[N+](=O)[O-] (centres unmarked)	IC50	> 50 µM
COc1cccc(CC(=O)NC2CC(=O)N(Cc3ccccc3C(F)(F)F)C2)c1 (centres unmarked)	IC50	> 50 µM
O=C(NC1CC(=O)N(Cc2ccccc2C(F)(F)F)C1)c1coc2ccccc12 (centres unmarked)	IC50	> 50 µM

Proceeding to the next molecule to report its IC50.
## Task What measured IC50 is associated with Cc1c(C(=O)NC2CC(=O)N(Cc3ccccc3C(F)(F)F)C2)cccc1[N+](=O)[O-] (centres unmarked) on EED-EZH2 (Homo sapiens (Human))?
## Result > 50 µM
